System: Caupolican (Caup) homeodomain DNA-binding domain
Sequence: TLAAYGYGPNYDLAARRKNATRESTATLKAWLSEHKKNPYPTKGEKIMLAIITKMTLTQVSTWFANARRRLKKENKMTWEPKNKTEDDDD
Method Description: PBM E-score (8-mer, recovered from the published 9-mer minima) (E-score (dimensionless, -0.5 to 0.5)); higher = stronger relative binding preference, active = 0.31 or more
Shown is part of a subset that was picked to be rich in hits. How many sequences the whole screen found active is unknown.
Measured Quantity: PBM E-score

>>> print(df.to_string())
    sequence_content  value_observed
 0          CTATGTTA           0.294
 1          AGTTGTTA           0.266
 2          CGTGTAAC           0.321
 3          TGTAGTAA           0.376
 4          AGTTGTAA           0.279
 5          CACATGCC          0.0641
 6          CGTTGTTA           0.305
 7          CGTGTAAA           0.377
 8          CACTGATG           0.107
 9          ACTGTAAG           0.147
10          GTCTGTTA           0.161
11          ATATGTTA           0.338
12          CGTAGTAA           0.145
13          TGTTGTAA           0.377
14          CTATGTTC            0.31
15          ATATGTGA            0.25
16          ATATGTGG           0.182
17          GGTTGTAC           0.222
18          GGTTGTGA          0.0824
19          ACAACCTC           0.169
20          CGTTGTAA           0.261
21          AGTGTAAA            0.13

====

Tested on: Caupolican (Caup) homeodomain DNA-binding domain
Sequence: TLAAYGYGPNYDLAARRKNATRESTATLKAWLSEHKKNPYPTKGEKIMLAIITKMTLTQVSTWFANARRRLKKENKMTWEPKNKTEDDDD
Method Description: PBM E-score (8-mer, recovered from the published 9-mer minima) (E-score (dimensionless, -0.5 to 0.5)); Drosophila protein; higher = stronger relative binding preference, active = 0.31 or more
This excerpt belongs to a sample that is enriched for hits. No count for the full screen is at hand.
So basically: PBM E-score at 0.2 or higher? That is Met. Lower than 0.2? That is Not met.

>>> df
    sequence_content                             target_system      cat
 0          ACAGATAT  Caupolican (Caup) homeodomain DNA-binding domain  Not met
 1          ACGTAATC  Caupolican (Caup) homeodomain DNA-binding domain  Not met
 2          ATGTAATC  Caupolican (Caup) homeodomain DNA-binding domain      Met
 3          ATATGCTG  Caupolican (Caup) homeodomain DNA-binding domain  Not met
 4          CATGACGC  Caupolican (Caup) homeodomain DNA-binding domain  Not met
 5          CCATGCTC  Caupolican (Caup) homeodomain DNA-binding domain  Not met
 6          TAATAACA  Caupolican (Caup) homeodomain DNA-binding domain      Met
 7          GTTTAATA  Caupolican (Caup) homeodomain DNA-binding domain      Met
 8          ATGTAATG  Caupolican (Caup) homeodomain DNA-binding domain      Met
 9          GGCGAGTA  Caupolican (Caup) homeodomain DNA-binding domain  Not met
10          TAACTTCA  Caupolican (Caup) homeodomain DNA-binding domain  Not met
11          AGCGTCGA  Caupolican (Caup) homeodomain DNA-binding domain  Not met
12          GAATAACA  Caupolican (Caup) homeodomain DNA-binding domain      Met
13          CAGACGCC  Caupolican (Caup) homeodomain DNA-binding domain  Not met
14          AAACACTT  Caupolican (Caup) homeodomain DNA-binding domain  Not met
15          ACATGCCT  Caupolican (Caup) homeodomain DNA-binding domain      Met
16          GATAACAA  Caupolican (Caup) homeodomain DNA-binding domain      Met
17          CCATGCTA  Caupolican (Caup) homeodomain DNA-binding domain  Not met
18          TCATGCCA  Caupolican (Caup) homeodomain DNA-binding domain  Not met
19          CATAGTGA  Caupolican (Caup) homeodomain DNA-binding domain  Not met
20          GCTCCATA  Caupolican (Caup) homeodomain DNA-binding domain  Not met
21          ATGTAATA  Caupolican (Caup) homeodomain DNA-binding domain      Met
22          TAATGTCA  Caupolican (Caup) homeodomain DNA-binding domain      Met
23          ATCATGCC  Caupolican (Caup) homeodomain DNA-binding domain  Not met
24          ACTTTACC  Caupolican (Caup) homeodomain DNA-binding domain  Not met
25          TATAACAA  Caupolican (Caup) homeodomain DNA-binding domain      Met
26          CGCTAATC  Caupolican (Caup) homeodomain DNA-binding domain  Not met
27          ACGGGTTC  Caupolican (Caup) homeodomain DNA-binding domain  Not met
28          AAACACGG  Caupolican (Caup) homeodomain DNA-binding domain      Met
29          CGGTAGGC  Caupolican (Caup) homeodomain DNA-binding domain  Not met
30          CAGTTCTA  Caupolican (Caup) homeodomain DNA-binding domain  Not met
31          CTGTAATA  Caupolican (Caup) homeodomain DNA-binding domain  Not met
32          TGATAACA  Caupolican (Caup) homeodomain DNA-binding domain      Met
33          TGAGGGCA  Caupolican (Caup) homeodomain DNA-binding domain  Not met
34          GTGTAATA  Caupolican (Caup) homeodomain DNA-binding domain      Met
35          ATGTAAGG  Caupolican (Caup) homeodomain DNA-binding domain      Met
36          CTATGCTC  Caupolican (Caup) homeodomain DNA-binding domain  Not met
37          AATGATAA  Caupolican (Caup) homeodomain DNA-binding domain  Not met
38          ACATGCTG  Caupolican (Caup) homeodomain DNA-binding domain      Met
39          CTCGTCAA  Caupolican (Caup) homeodomain DNA-binding domain  Not met
40          TACAATGA  Caupolican (Caup) homeodomain DNA-binding domain      Met
41          AGATGCTG  Caupolican (Caup) homeodomain DNA-binding domain  Not met
42          ACTTCTCA  Caupolican (Caup) homeodomain DNA-binding domain  Not met
43          AAATCCAG  Caupolican (Caup) homeodomain DNA-binding domain  Not met
44          CTATTCCA  Caupolican (Caup) homeodomain DNA-binding domain  Not met
45          GGATAACA  Caupolican (Caup) homeodomain DNA-binding domain      Met

Data origin, for the record: the supplement of paper PMC3724861
